System: HCT116 cells
assayDetails: Synergy between Nampt inhibitor and chemotherapeutic compounds (MacSynergy II, CellTiter-Glo)
Type: cell-based
protocolConditions: combined with a known Nampt inhibitor
measuredAttribute: drug interaction (synergy, additivity, or antagonism) with Nampt inhibitor

{"compound": "Oc1cccc(-c2nc(N3CCOCC3)c3oc4ncccc4c3n2)c1 [PI-103]", "targetSystem": "HCT116 cells", "obsValue": "synergized"}
{"compound": "Cc1nc2ccc(CN(C)c3ccc(C(=O)N[C@@H](CCC(=O)O)C(=O)O)s3)cc2c(=O)[nH]1 [raltitrexed]", "targetSystem": "HCT116 cells", "obsValue": "synergized"}

----------
Test system: cancer cell lines
assayDetails: Cytotoxicity in a wide variety of cancer cell types (TC50, CellTiter-Glo, 72 or 96 hours)
protocolConditions: read-out: TC50; MIA PaCa-2 cells, pancreatic; 3 DAY

{"structureSmilesString": "O=C(NCc1cccnc1)Nc1ccc(COc2ccccc2-c2ccccc2)cc1", "targetSystem": "cancer cell lines", "CC50, nM": 1.8}

----------
Test system: cancer cell lines
assayDetails: Cytotoxicity in a wide variety of cancer cell types (TC50, CellTiter-Glo, 72 or 96 hours)
protocolConditions: read-out: TC50; HOP92 cells, NSCLC; 3 DAY
measuredAttribute: CC50 (nM)

{"structureSmilesString": "O=C(NCc1cccnc1)Nc1ccc(COc2ccccc2-c2ccccc2)cc1", "obsValue": 17}

----------
System: cancer cell lines
assayDetails: Cytotoxicity in a wide variety of cancer cell types (TC50, CellTiter-Glo, 72 or 96 hours)
protocolConditions: read-out: TC50; OCI-Ly19 cells, lymphoma; 3 DAY
measuredAttribute: CC50

{"structureSmilesString": "O=C(NCc1cccnc1)Nc1ccc(COc2ccccc2-c2ccccc2)cc1", "obsValue": "1.2 nM"}

----------
Test system: cancer cell lines
assayDetails: Cytotoxicity in a wide variety of cancer cell types (TC50, CellTiter-Glo, 72 or 96 hours)
protocolConditions: read-out: TC50; NCI-N87 cells, gastric; 3 DAY

{"compound": "O=C(NCc1cccnc1)Nc1ccc(COc2ccccc2-c2ccccc2)cc1 [Exemplary Compound A]", "CC50, nM": 0.3}

----------
Tested on: cancer cell lines
assayDetails: Cytotoxicity in a wide variety of cancer cell types (TC50, CellTiter-Glo, 72 or 96 hours)
protocolConditions: read-out: TC50; MDA-MB-231 cells, breast; 7 DAY
measuredAttribute: CC50 (nM)

{"structureSmilesString": "O=C(NCc1cccnc1)Nc1ccc(COc2ccccc2-c2ccccc2)cc1", "obsValue": 7.5}

----------
System: cancer cell lines
assayDetails: Cytotoxicity in a wide variety of cancer cell types (TC50, CellTiter-Glo, 72 or 96 hours)
protocolConditions: read-out: TC50; DMS-114 cells, SCLC; 3 DAY

{"structureSmilesString": "O=C(NCc1cccnc1)Nc1ccc(COc2ccccc2-c2ccccc2)cc1", "CC50": "0.16 nM"}

----------
Tested on: cancer cell lines
assayDetails: Cytotoxicity in a wide variety of cancer cell types (TC50, CellTiter-Glo, 72 or 96 hours)
protocolConditions: read-out: TC50; NCI-N87 cells, gastric; 7 DAY
measuredAttribute: CC50 (nM)

{"structureSmilesString": "O=C(NCc1cccnc1)Nc1ccc(COc2ccccc2-c2ccccc2)cc1", "targetSystem": "cancer cell lines", "measuredAttribute": "CC50", "obsValue": 0.2}

----------
System: cancer cell lines
assayDetails: Cytotoxicity in a wide variety of cancer cell types (TC50, CellTiter-Glo, 72 or 96 hours)
protocolConditions: read-out: TC50; DU145 cells, prostate; 7 DAY

{"structureSmilesString": "O=C(NCc1cccnc1)Nc1ccc(COc2ccccc2-c2ccccc2)cc1", "CC50, nM": 2.7}

----------
Test system: cancer cell lines
assayDetails: Cytotoxicity in a wide variety of cancer cell types (TC50, CellTiter-Glo, 72 or 96 hours)
protocolConditions: read-out: TC50; MDA-MB-231 cells, breast; 3 DAY
measuredAttribute: CC50 (nM)

{"structureSmilesString": "O=C(NCc1cccnc1)Nc1ccc(COc2ccccc2-c2ccccc2)cc1", "targetSystem": "cancer cell lines", "measuredAttribute": "CC50", "unit": "nM", "obsValue": 10}

----------
Tested on: cancer cell lines
assayDetails: Cytotoxicity in a wide variety of cancer cell types (TC50, CellTiter-Glo, 72 or 96 hours)
protocolConditions: read-out: TC50; NCI-H460 cells, NSCLC; 3 DAY

{"structureSmilesString": "O=C(NCc1cccnc1)Nc1ccc(COc2ccccc2-c2ccccc2)cc1", "unit": "µM", "CC50": 0.0154}

----------
Tested on: cancer cell lines
assayDetails: Cytotoxicity in a wide variety of cancer cell types (TC50, CellTiter-Glo, 72 or 96 hours)
protocolConditions: read-out: TC50; HT1080 cells, sarcoma; 3 DAY

{"structureSmilesString": "O=C(NCc1cccnc1)Nc1ccc(COc2ccccc2-c2ccccc2)cc1", "targetSystem": "cancer cell lines", "CC50 / nM": 1}

----------
Tested on: cancer cell lines
assayDetails: Cytotoxicity in a wide variety of cancer cell types (TC50, CellTiter-Glo, 72 or 96 hours)
protocolConditions: read-out: TC50; NCI-H69 cells, SCLC; 3 DAY

{"structureSmilesString": "O=C(NCc1cccnc1)Nc1ccc(COc2ccccc2-c2ccccc2)cc1", "unit": "nM", "CC50": 1}

----------
targetSystem: Human NAMPT (Homo sapiens, UniProt P43490)
Sequence (P43490 whole entry): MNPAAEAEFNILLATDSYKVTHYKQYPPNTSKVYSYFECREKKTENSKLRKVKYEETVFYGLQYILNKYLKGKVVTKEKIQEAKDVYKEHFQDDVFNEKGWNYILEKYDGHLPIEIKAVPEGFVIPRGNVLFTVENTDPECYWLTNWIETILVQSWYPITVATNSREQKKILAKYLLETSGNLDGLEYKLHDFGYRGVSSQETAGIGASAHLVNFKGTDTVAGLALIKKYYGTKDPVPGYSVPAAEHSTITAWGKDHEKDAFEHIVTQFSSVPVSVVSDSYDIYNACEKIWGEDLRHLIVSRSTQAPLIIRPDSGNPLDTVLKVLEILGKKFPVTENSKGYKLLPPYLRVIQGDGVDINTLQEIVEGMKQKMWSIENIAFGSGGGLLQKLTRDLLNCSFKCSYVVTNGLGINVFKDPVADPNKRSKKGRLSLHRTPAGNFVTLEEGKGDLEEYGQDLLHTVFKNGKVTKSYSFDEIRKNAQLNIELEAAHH
measuredAttribute: IC50

{"molecule": "N#C/N=C(\\NCCOc1ccccc1-c1ccccc1)Nc1cccnc1 [Example 641]", "measuredAttribute": "IC50", "obsValue": "~1300 nM"}
{"molecule": "N#C/N=C(/NCc1ccc(COc2ccccc2-c2ccccc2)cc1)Nc1ccncc1 [Example 605]", "measuredAttribute": "IC50", "obsValue": "~2.4 nM"}
{"molecule": "CN(C)CCOc1cccc(-c2ccccc2CCOc2ccc(NC(=O)NCc3cccnc3)cc2)c1 [Example 797]", "measuredAttribute": "IC50", "obsValue": "~10 nM"}
{"molecule": "C[C@H](Oc1ccccc1-c1ccccc1)c1nc(CNC(=O)NCc2cccnc2)cs1 [Example 363]", "measuredAttribute": "IC50", "obsValue": "~3.4 nM"}
{"molecule": "N#C/N=C(/NCC(=O)NCCOc1ccccc1-c1ccccc1)Nc1ccncc1 [Example 634]", "measuredAttribute": "IC50", "obsValue": "~520 nM"}
{"molecule": "O=C(NCc1cccnc1)Nc1ccc(COc2cc(C(F)(F)F)ccc2Cl)cc1 [Example 164]", "measuredAttribute": "IC50", "obsValue": "~1.8 nM"}

----------
Test system: cancer cell lines
assayDetails: Cytotoxicity in a wide variety of cancer cell types (TC50, CellTiter-Glo, 72 or 96 hours)
protocolConditions: read-out: TC50; DB cells, lymphoma; 3 DAY

{"structureSmilesString": "O=C(NCc1cccnc1)Nc1ccc(COc2ccccc2-c2ccccc2)cc1", "targetSystem": "cancer cell lines", "unit": "nM", "CC50": 3.5}

----------
System: cancer cell lines
assayDetails: Cytotoxicity in a wide variety of cancer cell types (TC50, CellTiter-Glo, 72 or 96 hours)
protocolConditions: read-out: TC50; HCT116 cells, colon; 7 DAY

{"structureSmilesString": "O=C(NCc1cccnc1)Nc1ccc(COc2ccccc2-c2ccccc2)cc1", "unit": "nM", "CC50": 0.4}

----------
Test system: cancer cell lines
assayDetails: Cytotoxicity in a wide variety of cancer cell types (TC50, CellTiter-Glo, 72 or 96 hours)
protocolConditions: read-out: TC50; DU4475 cells, breast; 3 DAY

{"compound": "O=C(NCc1cccnc1)Nc1ccc(COc2ccccc2-c2ccccc2)cc1 [Exemplary Compound A]", "CC50": "100 pM"}

----------
System: cancer cell lines
assayDetails: Cytotoxicity in a wide variety of cancer cell types (TC50, CellTiter-Glo, 72 or 96 hours)
protocolConditions: read-out: TC50; HCC827 cells, NSCLC; 3 DAY
measuredAttribute: CC50

{"structureSmilesString": "O=C(NCc1cccnc1)Nc1ccc(COc2ccccc2-c2ccccc2)cc1", "measuredAttribute": "CC50", "obsValue": "8 nM"}

----------
Tested on: cancer cell lines
assayDetails: Cytotoxicity in a wide variety of cancer cell types (TC50, CellTiter-Glo, 72 or 96 hours)
protocolConditions: read-out: TC50; NCI-H1650 cells, NSCLC; 3 DAY

{"structureSmilesString": "O=C(NCc1cccnc1)Nc1ccc(COc2ccccc2-c2ccccc2)cc1", "CC50 [nM]": 2.5}

----------
System: cancer cell lines
assayDetails: Cytotoxicity in a wide variety of cancer cell types (TC50, CellTiter-Glo, 72 or 96 hours)
protocolConditions: read-out: TC50; DU4475 cells, breast; 7 DAY

{"structureSmilesString": "O=C(NCc1cccnc1)Nc1ccc(COc2ccccc2-c2ccccc2)cc1", "unit": "nM", "CC50": 0.1}

----------
Test system: cancer cell lines
assayDetails: Cytotoxicity in a wide variety of cancer cell types (TC50, CellTiter-Glo, 72 or 96 hours)
protocolConditions: read-out: TC50; U-87MG cells, glioma; 3 DAY

{"structureSmilesString": "O=C(NCc1cccnc1)Nc1ccc(COc2ccccc2-c2ccccc2)cc1", "CC50 [µM]": 0.023}

Cited source: patent US20130317027A1
